Experiment: yeast display, Sf9 membrane polyspecificity reagent, FACS + sequencing; frameworks hold sequencing errors
observable: polyreactivity (PSR sort gate)

>>> observed_measurement("QVQLVESGGGLVQAGGSLRLSSAASGFVCNAMGWYRQAPGKERDLVAAIDSSGGNTYYADSVKGRFTISRDNAKNTVYLQMNSMKPEDTAVYYCAARYVERHTDYYYWGQGTQVTVSS")
"low polyreactivity"
>>> observed_measurement("QVQLLESGGGLVQAGGSLRLSCASSGRTFLTNAMGWYRQAPGKERELVAVITDGDTTYADSVKGRFTISRDNAKNTVYLLMNSLKPEDSAVYYCAADENYWSAGYDSWGLGTQVTVSS")
"low polyreactivity"
>>> observed_measurement("QVQLVESGAGLVQAGGSLRLSCAASGRILIIYAMGWYRQAPGKERELVARITYTGGRTYYADSVKGRFTISRDNAKNTVYRQMNSLKPDDTAVYYCATDWSRSDSYSHYDSWVQGTQVTVSS")
"low polyreactivity"
>>> observed_measurement("QVQLVESGGGLVQAGASLRLSSAASGFIFRDYAMGWYRQAPGKDRELVAAISRGGGTTYYEDSVKGRFTISRENAKNTVYLQMNSLTPEDTAVYYCAAKSAFPLDYWGQGTQVTVSS")
"high polyreactivity"
>>> observed_measurement("QVQLVESGGGLVQAGGSLRLSCAASGSTFRYYAMGWYRQAPGKEREFVAAITASGVTTYYADSVKGRFTISRDNAKNTVYLQMNSLKPEDTAVYYCAARLYYNYRGRYNYWGQGTQVTVSS")
"high polyreactivity"
>>> observed_measurement("QVQLVESGGGLVQAGGSLRLSCAASGIIFPGYAMGWYRQAPGKERELVAAISSSGSSTYYADSVKGRFTISRDNGKNTVYLQMNSLKPEDTAVYYCAAVRYGLRRMDYWGQGTQVTVSS")
"high polyreactivity"
>>> observed_measurement("QVQLVESGGGLVQAGGSLRLSCAASGSIFDFYAMGWYRQAPGKERELVAAITWSGDTTYYADSVKGRFTISRDNAKNTVYLQMNCLKPEDTAVYYCAAEGWYWWYGRDYYWGQGTQVTVSS")
"high polyreactivity"
>>> observed_measurement("QVQLVESAGGLVQAGGSLRLTCAASGRTFTFNTMGWYRQAPGKERELVAAIDGDGTTNYADSVKGRFTISRDNAKNTVYLQMNSLKPEDTAVYYCAADFLYSFWYEPTFDYWGQGTQVTVSS")
"low polyreactivity"
>>> observed_measurement("QVQLVESGGGLVQAGGSLRLSCAASGITFYFNTMGWYRQAPGKERELVASISGGSSTYYADSVKGRFTISRDNAKYTVYLQMNSLKPEDTAVYYCNAQGSLFRGWFDYDYWGQGTQVTVSS")
"low polyreactivity"
>>> observed_measurement("QVQLVESGGGLVQAGGSLRLSCAASGIIFGRYTMGWYRQAPGKERELVAAITSSGITYYADSVKGRFTISRDNAKNTVYLQMNSLKPEETAVYYCNADYSIPGYYWPYDYWGQGTQVTVSS")
"low polyreactivity"
>>> observed_measurement("QVQLVESGGGIVPAGGSLRLSCAASGLTFRFNAMGWYRQAPGKERELVADITVSGGRTYYADSVKGRFTISRDNAKNTVYLQMNSLKPEDTAVYYCARRRTVGVTEPFSRGYDYWGQGTQVTVSS")
"low polyreactivity"

====

Assay: yeast display, Sf9 membrane polyspecificity reagent, FACS + sequencing; frameworks hold sequencing errors
observable: polyreactivity (PSR sort gate)

>>> observed_measurement("QVQLVESGGGLVQAGGSLRLSCAASGFIFYYNAMGWYRQAPGKERELVAGISRSAGSTYYADSVKGRFTISRDNAKNTVYLQMNSLKPEDTAVYYCNAEVYGGRYYVDMYYWGQGTQVTVSS")
"low polyreactivity"
>>> observed_measurement("QVQLVESGGGLVQAGGSLRLSCAASGSIFLIYAMGWYRQGPGKERELVAGINWSGSRTYYADSVKGRFTISRDNAKNTVYLQMNSLKPEDTAVYDCAARVRRPLYSAYDSWGQGTQVTVSS")
"low polyreactivity"
>>> observed_measurement("QVQLVESGGGLVQAGGSLRLSCAASGRTFYPNAMGWYRQAPGKERELVAGIRSSGDSTYYADSVKGRFTISRDNAKNTVYLQMNSLKPEDTAVYYCNRDLTPSYDYWGQGTQVTVSS")
"low polyreactivity"
>>> observed_measurement("QVQLVESGGGLVQAGGSLRLSCPASGTTIVSNAMGWYRQAPGKERDLVAAISSSGGRTSYADSVKGRFTISRDNAKNTVSLQMNSLKPEDTAVYYCAADHPPGDTYEYWGQGTQVSVSS")
"low polyreactivity"
>>> observed_measurement("QVQLVESGGGLVQAGGSLRLSCAASGRTFNSYAMGWYRPAPGKERELVATISSRGGNTFYADSVKGRFTISRDYAKNTVYLQMNRLKPEDTAVYYCAKPGYLRPSRYDYWGQGTQVTVSS")
"high polyreactivity"
>>> observed_measurement("QVQLVESGGRKVQAGGSLRLICAASGSIFYAYTMGRYRQAPGKERELSTYADSVKGRFTISRDNAKNTVYLQMNSLKPEDTAVYYCNARFYKKTLSYRVKYRMEYWGQGTQVTVSS")
"low polyreactivity"
>>> observed_measurement("QVQLVESGGGLVQAGGSLRLSCAASGSIFLPYAMGWNRQAPGKERELVAAITWSGGRTYYADSVKGRFTISRDNAKNTVYLQMNSLKPEDTAVYYCAADDSEGFDYWGQGTQVTVSS")
"high polyreactivity"
>>> observed_measurement("QVQLVESGGGLVQAGGSLRLSCAASGSTFGTYAMGWYRQAPGKERELVATISIGGITYYADSVKGRFTISRDNAKNTVYLQMNSLKPEDTAVYYCAKDVTDPTSRSDPSGDDYWGQGTQVTVSS")
"low polyreactivity"
>>> observed_measurement("QVQLVESGGGLVQARVSLRLICAASAIIIYDNAIGWYRQAPGKESEFVATINYSGDSTYYADSVKGRFTISRDNANNTVYLQMNSLKPEDTAVYYCATDGAWQYYWVYSHVYWGQGTQVTVSS")
"low polyreactivity"
>>> observed_measurement("QVQLVESGGGLVQARGSLRLSCAASGITFRYYAMGWYRQAPGKERELVASISWSGGSTYYADSVKGRFTISRDNAKNTVYLQMNSLKPEDTAVYYCAADILTFWYRYYYWGQGTQVTVSS")
"high polyreactivity"
>>> observed_measurement("QVQLVESGGGLVQAGGSLRLSCAASGRILYWYAMGGYRQAPGKERELVAGIDWSGGSTYYADSVKGRFTISRDNAKNTVYLQMNSLKPEDTAVYYCNAVQNRGRGSHRGESTYYYWGQGTQVTVSS")
"low polyreactivity"
>>> observed_measurement("QLQLVESGGGLVQAGGSLRLSCAASGFIFYYNVMGWYRQAPGKERELVAAIRYRGTITYYADSVKGRFTISRDIAKNTVYLQMNSLKPEDTAVYYCARRQRNYYRSSPGGDYWGQGTQVTVSS")
"low polyreactivity"
>>> observed_measurement("QVQLVESGGGLLQAGGSLRLSCAASGSTFYIYSMGCYRQAPGKERELVARISGAGGSTYYSDSVKGRFTISRDNAKNTVYFQMNCLNPEDTAVYYCAAVDIYKYYQYYACPYDSYDYWGQGTQVTVSS")
"low polyreactivity"
>>> observed_measurement("QVQLVESGGGLVQAGGSLRLSCAASGLTFYQNAMGWYRQAPGKERELVAAISSIGGTYYADSVKGRFTISRDNAKNTVYLQMNSLKPEDTAVYYCAKRSRYPYYPYGYWGQGTQVTVSS")
"high polyreactivity"
>>> observed_measurement("QVQLVESGGGLVEAGGSLRLSCAASGIFRYYAMGWYRQAPGKERELVASITGGGSTYYADSVKGRFTISRDNAKNTVYLQMNSLKPEDTAVYYCNTAGAYYRWTPYYYWGQGTQVTVSS")
"high polyreactivity"
>>> observed_measurement("QVQHVESGGGLVQAGGSLRLGCPASGIIFIAYAMGWYRQAPGKERELVADISIGGSTNYADSVKGRFTISRDNAKYTVYLQMNSLKPEDTAVYYCAKRPKNKPVLGDYDHWGQGTQVTVSS")
"low polyreactivity"
>>> observed_measurement("QVQLVETGGGLVQAGGSLRLSCAASGRTIRKYAMGWYRQAPGKERELVAAISWSGGSTYYANSVKGRFTISRDNAKNTVYLQMKSLKPVDTEVYYCAAVPVHTGSLYWGFTTGYDYWGQGTQVTVSS")
"low polyreactivity"
>>> observed_measurement("QVHLVESVGGLFQAGGSLRLSCDASGRTFPINAMGWYRQAPGKERELVARISRTSGSTYYADSVKGRFTISRDNAKNTVYLQMNSLNPEDTAVYYCAAVRDKYFRARYGYWGQGTQVTVSS")
"high polyreactivity"
>>> observed_measurement("QVQLVESGGGLVQAGGSLRLTCAASGIIFYPYAMGWYRQAPGKERELVAAISIGGGSTYYADSVKGRFTISRDNAKNTVYLQMNSLKPEDTAVYYCAAGTPYGILGYYYWGQGTQVTVSS")
"low polyreactivity"
>>> observed_measurement("QVQLVESGGGLVQAGGSLRLSCAASGRTFRQYAMGWYRQAPGKERELVADISSGGSTYYADSVKGRFTISRDNAKNTVYLKLNRLKPEDTAVYYCNKVSSGRYGSRSFDYWGQGTQVTVSS")
"low polyreactivity"
>>> observed_measurement("QVQLVESGGGLVQAGGSLRLSCAASGGIFFTYAMGWYRQAPGKERELVAGISWSDGSTYADSVKGRFTISRDNAKNTVYLQMNSLKPEDTAVYYCNKRIYDLFLSPAAGGYWGQGTQVTVSS")
"low polyreactivity"
